Biological target: Cytochrome P450 3A4 (Homo sapiens, UniProt P08684)
Sequence (P08684 whole entry): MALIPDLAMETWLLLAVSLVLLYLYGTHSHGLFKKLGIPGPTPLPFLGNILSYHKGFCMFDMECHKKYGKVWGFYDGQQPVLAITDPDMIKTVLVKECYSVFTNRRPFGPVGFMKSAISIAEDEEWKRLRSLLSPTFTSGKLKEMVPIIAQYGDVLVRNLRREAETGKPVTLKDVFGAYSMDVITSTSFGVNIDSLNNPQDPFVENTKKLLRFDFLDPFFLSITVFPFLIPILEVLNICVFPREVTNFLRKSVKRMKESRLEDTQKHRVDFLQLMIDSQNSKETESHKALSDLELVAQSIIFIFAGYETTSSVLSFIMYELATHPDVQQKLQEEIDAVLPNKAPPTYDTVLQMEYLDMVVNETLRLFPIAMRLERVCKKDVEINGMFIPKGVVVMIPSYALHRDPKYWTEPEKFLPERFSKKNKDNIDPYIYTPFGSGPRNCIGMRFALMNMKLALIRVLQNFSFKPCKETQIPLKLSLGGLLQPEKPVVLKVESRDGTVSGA
Experiment: Inhibition of midazolam 1'-hydroxylase activity of human recombinant CYP3A4 harboring human P450 oxidoreductase and b5 assessed as decrease in enzyme activity preincubated for 30 mins by LC-MS/MS analysis
Assay type: ADME
TEST READOUT: pKi
Bear in mind: pKi is minus log10 of a mol/L concentration; give just that figure.

Request: pKi, test system Cytochrome P450 3A4 (Homo sapiens, UniProt P08684), entry `Cc1ccc(-c2c(-c3nn(C)c4ncnc(N5CC[C@H](N6CCCCC6)C5)c34)cnn2C)cc1`
6.92

* * *

Target: Cytochrome P450 3A4 (Homo sapiens, UniProt P08684)
Assay: Inhibition of testosterone 6beta-hydroxylase activity of human recombinant CYP3A4 in presence of human P450 oxidoreductase and b5 assessed as decrease in enzyme activity preincubated for 30 mins by LC-MS/MS analysis
Assay type: ADME
TEST READOUT: Ki (nM)
Report the value in nM with no unit label.

Consider the molecule `Cc1ccc(-c2c(-c3nn(C)c4ncnc(N5CC[C@H](N6CCCCC6)C5)c34)cnn2C)cc1` and give its measured Ki.
170

From: ChEMBL document CHEMBL3526089
